Numbers sourced from ChEMBL document CHEMBL1122917.

Measured ILS at 8 mg/kg/day by item
- Test system: Mus musculus
- test-method-notes: Percent increase in life span at dose 8 mg/kg/day in 10 mice implanted with P388 leukemia cell line
- Format: functional
API: value field is a number in %; no unit string.

CCOC(=O)C(CC(C)C)NC(=O)[C@@]1(O)[C@H](O)[C@]2(CC)C=CCN3CC[C@@]4(c5cc([C@@]6(C(=O)OC)C[C@H]7CN(CCc8c6[nH]c6ccccc86)C[C@](O)(CC)C7)c(OC)cc5N(C)[C@@]14C)[C@@H]32 (some centres not stated) :: 46.5

Lab note: next compound to report on.
The value of ILS at 8 mg/kg/day measured for the compound CC[C@]1(O)C[C@@H]2CN(CCc3c([nH]c4ccccc34)[C@@](C(=O)OC)(c3cc4c(cc3OC)N(C)[C@H]3[C@@](O)(C(N)=O)[C@H](O)[C@]5(CC)C=CCN6CC[C@]43[C@@H]65)C2)C1 [VINDESINE] turned out to be -46

* * *

- Tested on: Mus musculus
- test-method-notes: Percent increase in life span at dose 70 mg/kg/day in 10 mice implanted with P388 leukemia cell line
- Assay type: functional
Measured ILS at 70 mg/kg/day by item
API: value field is a number in %; no unit string.

The cases that follow already have their ILS at 70 mg/kg/day on record.
CC[C@]1(O)C[C@@H]2C[N@](CCc3c([nH]c4ccccc34)[C@@](C(=O)OC)(c3cc4c(cc3OC)N(C)[C@@]3(C)[C@@](O)(C(=O)N[C@@H](Cc5c[nH]c6ccccc56)C(=O)OC)[C@H](O)[C@]5(CC)C=CCN6CC[C@]43[C@@H]65)C2)C1 :: 145
CCCCOC(=O)[C@H](Cc1c[nH]c2ccccc12)NC(=O)[C@@]1(O)[C@H](O)[C@]2(CC)C=CCN3CC[C@@]4(c5cc([C@@]6(C(=O)OC)C[C@H]7C[N@](CCc8c6[nH]c6ccccc86)C[C@](O)(CC)C7)c(OC)cc5N(C)[C@@]14C)[C@@H]32 :: 52
CCCCOC(=O)[C@H](CC(C)C)NC(=O)[C@@]1(O)[C@H](O)[C@]2(CC)C=CCN3CC[C@@]4(c5cc([C@@]6(C(=O)OC)C[C@H]7C[N@](CCc8c6[nH]c6ccccc86)C[C@](O)(CC)C7)c(OC)cc5N(C)[C@@]14C)[C@@H]32 :: 26.7
CCOC(=O)[C@H](Cc1ccc(O)cc1)NC(=O)[C@@]1(O)[C@H](O)[C@]2(CC)C=CCN3CC[C@@]4(c5cc([C@@]6(C(=O)OC)C[C@H]7C[N@](CCc8c6[nH]c6ccccc86)C[C@](O)(CC)C7)c(OC)cc5N(C)[C@@]14C)[C@@H]32 :: 49.5

The value of ILS at 70 mg/kg/day measured for the molecule CCOC(=O)[C@H](Cc1c[nH]c2ccccc12)NC(=O)[C@@]1(O)[C@H](O)[C@]2(CC)C=CCN3CC[C@@]4(c5cc([C@@]6(C(=O)OC)C[C@H]7C[N@](CCc8c6[nH]c6ccccc86)C[C@](O)(CC)C7)c(OC)cc5N(C)[C@@]14C)[C@@H]32 turned out to be 160

* * *

- Test system: Mus musculus
- test-method-notes: Percent increase in life span at dose 55 mg/kg/day in 10 mice implanted with P388 leukemia cell line
- Assay type: functional
Measured ILS at 55 mg/kg/day by item
API: value field is a number in %; no unit string.

The cases that follow already have their ILS at 55 mg/kg/day on record.
CC[C@]1(O)C[C@@H]2C[N@](CCc3c([nH]c4ccccc34)[C@@](C(=O)OC)(c3cc4c(cc3OC)N(C)[C@@]3(C)[C@@](O)(C(=O)N[C@@H](Cc5c[nH]c6ccccc56)C(=O)OC)[C@H](O)[C@]5(CC)C=CCN6CC[C@]43[C@@H]65)C2)C1 :: 85.8
CCCCOC(=O)[C@H](CC(C)C)NC(=O)[C@@]1(O)[C@H](O)[C@]2(CC)C=CCN3CC[C@@]4(c5cc([C@@]6(C(=O)OC)C[C@H]7C[N@](CCc8c6[nH]c6ccccc86)C[C@](O)(CC)C7)c(OC)cc5N(C)[C@@]14C)[C@@H]32 :: 23

Lab note: next compound to report on.
The value of ILS at 55 mg/kg/day measured for the compound CCOC(=O)[C@H](Cc1ccccc1)NC(=O)[C@@]1(O)[C@H](O)[C@]2(CC)C=CCN3CC[C@@]4(c5cc([C@@]6(C(=O)OC)C[C@H]7C[N@](CCc8c6[nH]c6ccccc86)C[C@](O)(CC)C7)c(OC)cc5N(C)[C@@]14C)[C@@H]32 turned out to be 36.4
